Taken from BindingDB's records for doi:10.1016/j.bmc.2009.06.008.

- Assayed System: Sonic hedgehog protein (Mus musculus, UniProt Q62226)
- Test: Inhibition of SHH in mouse Shh-Light2 cells after 48 hrs by Gli1 reporter gene assay in presence of SAG
Please respond with 1 (yes) when measured IC50 is strictly beneath 200 nM, and with 0 (no) in all other cases.

1) O=C(Nc1ccc(Cl)c(-c2nc3ccccc3[nH]2)c1)c1ccccc1 ... 1 (yes)
2) CCOc1cc(C(=O)Nc2cccc(-c3nc4ccccc4[nH]3)c2)cc(OCC)c1OCC ... 0 (no)
3) COc1cc(C(=O)Nc2ccc(Cl)c(-c3nc4ccccc4[nH]3)c2)cc(OC)c1OC ... 1 (yes)
4) CN(C)c1ccc(C(=O)Nc2ccc(Cl)c(-c3nc4ccccc4[nH]3)c2)cc1 ... 1 (yes)
5) COc1ccc(C(=O)Nc2ccc(Cl)c(-c3nc4ccccc4[nH]3)c2)cc1 ... 1 (yes)
6) CCOc1cc(C(=O)Nc2ccc(Cl)c(-c3nc4ccccc4[nH]3)c2)cc(OCC)c1OCC ... 1 (yes)
7) O=C(Nc1ccc(Cl)c(-c2nc3ccccc3[nH]2)c1)c1cccc(C(F)(F)F)c1 ... 1 (yes)
8) O=C(Nc1ccc(Cl)c(-c2nc3ccccc3[nH]2)c1)c1ccc(F)cc1 ... 0 (no)
9) CC1=C2C[C@H]3[C@@H](CC=C4C[C@@H](O)CC[C@@]43C)[C@@H]2CC[C@]12O[C@@H]1C[C@H](C)CN[C@H]1[C@H]2C ... 0 (no)
10) O=C(Nc1ccc(Cl)c(-c2nc3ccccc3[nH]2)c1)c1ccc(Cl)cc1 ... 0 (no)
11) N#Cc1ccc(C(=O)Nc2ccc(Cl)c(-c3nc4ccccc4[nH]3)c2)cc1 ... 1 (yes)
12) COc1ccccc1C(=O)Nc1ccc(Cl)c(-c2nc3ccccc3[nH]2)c1 ... 0 (no)
